Data credit: PubChem BioAssay (NCI)

Tested on: SN12C renal
Test: NCI tumour cell line growth inhibition, 48 h
Decide using TGI: a value greater than or equal to 30 µM is yes (1), a smaller one is no (0).

1. O=C(C(=O)c1cc(Br)ccc1O)c1cc(Br)ccc1O :: yes (1)
2. CC1(Cl)CC(C)(/C=C/Cl)C(Cl)CC1Cl (stereo unspecified) :: yes (1)
3. Cc1cc(=O)n2nc(CSc3nnc(Sc4cc(O)ccc4O)s3)sc2n1 :: yes (1)
4. CCCCCCCCCCCCCCC(C)CCC(=O)O (stereo unspecified) :: yes (1)
5. c1cc2c(cc1[C@@H]1OC[C@@H]3[C@H]1CO[C@H]3c1ccc3c(c1)OCO3)OCO2 :: yes (1)
6. COc1cc2c(cc1OC)C(=O)N(c1ccc(OCCN3CCCC3)cc1)C2=O :: yes (1)
7. O=C(c1ccccc1)c1cc(Cl)ccc1NCn1nnc2ccccc21 :: yes (1)
8. COc1cc2c(cc1OCCCOc1ccc(-c3cc4ccccc4c4ccccc34)cc1)N=C[C@@H]1CCCN1C2=O :: no (0)
9. CN(C)c1ccc(N=C2C=CC(=C(C#N)C#N)c3ccccc32)cc1 :: no (0)
10. O=C(/C(=C/c1ccc(O)cc1)c1ccccc1)c1ccccc1 :: yes (1)
11. COc1ccc(/C=C\c2cc(OC)c(OC)c(OC)c2)c(NS(=O)(=O)c2ccc(C(C)(C)C)cc2)c1O :: no (0)
12. COc1ccc(/C(C)=C(\c2ccc(Cl)cc2)c2ccc(OCCN3CCCCCC3)cc2)cc1F :: no (0)
13. COC(=O)CC1CC2(C(=O)OC)c3[nH]c4ccccc4c3CCN2C1=O (stereo unspecified) :: yes (1)
14. NC(N)=N/N=C/c1c(-c2ccc(Cl)c([N+](=O)[O-])c2)nc2sc3ccccc3n12 :: no (0)
15. COc1c(O)c2c3c(c1OC)-c1ccccc1CC3N(S(=O)(=O)c1ccc(C)cc1)CC2 (stereo unspecified) :: yes (1)
16. C(=C\c1c2oc(-c3ccccc3)cc(-c3ccccc3)c-2c2ccccc12)/C=C1\c2ccccc2-c2c(-c3ccccc3)cc(-c3ccccc3)[o+]c21 :: yes (1)
17. O=C(O)CCC1NC(/C(=C/c2ccccc2O)NC(=O)c2ccccc2)OC1=O (stereo unspecified) :: yes (1)
18. COc1cc(CCc2ccc(OC(C)=O)cc2)cc(OC)c1OC :: yes (1)
19. O=C(Nc1ccc(C(F)(F)F)cc1[N+](=O)[O-])c1cccnc1 :: yes (1)
20. Cc1cc2occ(S(=O)(=O)NC(=O)Nc3ccc(Cl)cc3)c(=O)c2c(=O)o1 :: yes (1)
